# Measurement Parameters: in sec-butanol, 303.15 K

# Compound Smiles, solubility (mole fraction)
data = [
    ("CCC[C@@H]1C[C@@H](C(=O)N[C@@H]([C@H]2O[C@H](SC)[C@H](O)[C@H]3OC(C)(C)O[C@H]32)[C@H](C)Cl)N(C)C1", 0.0709),
]

###

# Measurement Parameters: in methanol, 313.15 K

# Compound Smiles, solubility (mole fraction)
measured = [
    ("CCC[C@@H]1C[C@@H](C(=O)N[C@@H]([C@H]2O[C@H](SC)[C@H](O)[C@H]3OC(C)(C)O[C@H]32)[C@H](C)Cl)N(C)C1", 0.0746),
]

###

# Measurement Parameters: in sec-butanol, 313.15 K
Value Type: solubility (mole fraction)

# Compound Smiles, Value Type, Value Reported
records = [
    ("CCC[C@@H]1C[C@@H](C(=O)N[C@@H]([C@H]2O[C@H](SC)[C@H](O)[C@H]3OC(C)(C)O[C@H]32)[C@H](C)Cl)N(C)C1", "solubility (mole fraction)", 0.0947),
]

###

# Measurement Parameters: in ethanol, 278.15 K

# Compound Smiles, solubility (mole fraction)
rows = [
    ("CCC[C@@H]1C[C@@H](C(=O)N[C@@H]([C@H]2O[C@H](SC)[C@H](O)[C@H]3OC(C)(C)O[C@H]32)[C@H](C)Cl)N(C)C1", 0.0179),
]

###

# Measurement Parameters: in acetonitrile, 293.15 K

# Compound Smiles, solubility (mole fraction)
data = [
    ("CCC[C@@H]1C[C@@H](C(=O)N[C@@H]([C@H]2O[C@H](SC)[C@H](O)[C@H]3OC(C)(C)O[C@H]32)[C@H](C)Cl)N(C)C1", 0.0078),
]

###

# Measurement Parameters: in isopropanol, 293.15 K
Value Type: solubility (mole fraction)

# Compound Smiles, Value Reported
rows = [
    ("CCC[C@@H]1C[C@@H](C(=O)N[C@@H]([C@H]2O[C@H](SC)[C@H](O)[C@H]3OC(C)(C)O[C@H]32)[C@H](C)Cl)N(C)C1", 0.022),
]

###

# Measurement Parameters: in isobutanol, 273.15 K
Value Type: solubility (mole fraction)

# Compound Smiles, Value Type, Value Reported
measured = [
    ("CCC[C@@H]1C[C@@H](C(=O)N[C@@H]([C@H]2O[C@H](SC)[C@H](O)[C@H]3OC(C)(C)O[C@H]32)[C@H](C)Cl)N(C)C1", "solubility (mole fraction)", 0.0139),
]

###

# Measurement Parameters: in n-propyl acetate, 303.15 K

# Compound Smiles, solubility (mole fraction)
records = [
    ("CCC[C@@H]1C[C@@H](C(=O)N[C@@H]([C@H]2O[C@H](SC)[C@H](O)[C@H]3OC(C)(C)O[C@H]32)[C@H](C)Cl)N(C)C1", 0.0223),
]

###

# Measurement Parameters: in isobutanol, 293.15 K
Value Type: solubility (mole fraction)

# Compound Smiles, Value Type, Value Reported
measured = [
    ("CCC[C@@H]1C[C@@H](C(=O)N[C@@H]([C@H]2O[C@H](SC)[C@H](O)[C@H]3OC(C)(C)O[C@H]32)[C@H](C)Cl)N(C)C1", "solubility (mole fraction)", 0.0334),
]

###

# Measurement Parameters: in methanol, 273.15 K

# Compound Smiles, solubility (mole fraction)
records = [
    ("CCC[C@@H]1C[C@@H](C(=O)N[C@@H]([C@H]2O[C@H](SC)[C@H](O)[C@H]3OC(C)(C)O[C@H]32)[C@H](C)Cl)N(C)C1", 0.0212),
]
